target: p38 MAP Kinase a (Homo sapiens, UniProt Q16539)
Sequence (Q16539 whole entry): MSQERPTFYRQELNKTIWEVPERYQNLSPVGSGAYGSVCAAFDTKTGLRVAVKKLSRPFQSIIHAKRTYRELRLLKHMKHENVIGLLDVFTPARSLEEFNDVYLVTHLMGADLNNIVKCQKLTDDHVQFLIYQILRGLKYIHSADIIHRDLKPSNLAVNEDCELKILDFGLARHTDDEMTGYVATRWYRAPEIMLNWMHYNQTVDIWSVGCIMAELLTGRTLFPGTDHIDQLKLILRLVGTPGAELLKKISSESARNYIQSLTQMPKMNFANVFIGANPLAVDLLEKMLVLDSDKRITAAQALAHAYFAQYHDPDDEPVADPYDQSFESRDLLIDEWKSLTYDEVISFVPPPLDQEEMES
We begin with a simple list: items and their reported IC50.

Study these solved cases before continuing.
- COMPOUND: "Nc1c(C(=O)c2ccc(F)cc2)ccc(=O)n1-c1ccc(OCCCN[C@@H](Cc2ccccc2)C(=O)OC2CCCC2)cc1 [Example 24]"
  IC50: "< 100 nM"
- COMPOUND: "Cc1cc(C(=O)c2ccc(=O)n(-c3c(F)cc(OCCCN[C@H](C(=O)O)c4ccccc4)cc3F)c2N)ccc1F [Example 99]"
  IC50: "< 100 nM"
- COMPOUND: "CC(C)C[C@H](NCCCOc1ccc(-n2c(N)c(C(=O)c3ccc(F)cc3)ccc2=O)c(F)c1)C(=O)OC1CCCC1 [Example 66]"
  IC50: "100 to 1000 nM"
- COMPOUND: "Nc1c(C(=O)c2ccc(F)cc2F)ccc(=O)n1-c1ccc(CN[C@@H](Cc2ccccc2)C(=O)OC2CCCC2)cc1 [Example 8]"
  IC50: "< 100 nM"
- COMPOUND: "CC(C)C[C@H](NCCCCCOc1cc(F)c(-n2c(N)c(C(=O)c3ccc(F)cc3F)ccc2=O)c(F)c1)C(=O)OC1CCCC1 [Example 53]"
  IC50: "< 100 nM"
- COMPOUND: "Nc1c(C(=O)c2ccc(F)cc2)ccc(=O)n1-c1ccc(CN[C@H](C(=O)OC2CCCC2)c2ccccc2)cc1 [Example 1]"
  IC50: "100 to 1000 nM"
- COMPOUND: "CC(C)C[C@H](NCCc1ccc(-n2c(N)c(C(=O)c3ccc(F)cc3F)ccc2=O)cc1)C(=O)O [Example 117]"
  IC50: "< 100 nM"
- COMPOUND: "Nc1c(C(=O)c2ccc(F)cc2)ccc(=O)n1-c1c(F)cc(OC2CCC(N[C@@H](Cc3ccccc3)C(=O)O)CC2)cc1F (some centres unmarked) [Example 102]"
  IC50: "< 100 nM"

Asked: Value wanted: IC50 (p38 MAP Kinase a (Homo sapiens, UniProt Q16539)) of entry Nc1c(C(=O)c2ccc(F)cc2)ccc(=O)n1-c1c(F)cc(OCCCN[C@H](C(=O)O)c2ccccc2)cc1F [Example 89]
Given back: < 100 nM

Asked: Can you handle Cc1cc(C(=O)c2ccc(=O)n(-c3ccc(OCCCN[C@H](C(=O)O)c4ccccc4)cc3)c2N)ccc1F [Example 87] next?
Given back: 100 to 1000 nM

Asked: Can you handle Nc1c(C(=O)c2ccc(F)cc2)ccc(=O)n1-c1c(F)cc(OCCCN[C@@H](Cc2ccccc2)C(=O)O)cc1F [Example 90] next?
Given back: < 100 nM

Asked: Can you handle CC(C)C[C@H](NCc1cc(F)c(-n2c(N)c(C(=O)c3ccc(F)cc3F)ccc2=O)c(F)c1)C(=O)OC1CCCC1 [Example 11] next?
Given back: < 100 nM

Asked: Can you handle CC(C)C[C@H](NCCc1ccc(-n2c(N)c(C(=O)c3ccc(F)cc3F)ccc2=O)cc1)C(=O)OC(C)(C)C [Example 60] next?
Given back: 100 to 1000 nM

Asked: Can you handle Cc1cc(C(=O)c2ccc(=O)n(-c3c(F)cc(OCCCN[C@@H](Cc4ccccc4)C(=O)OC4CCCC4)cc3F)c2N)ccc1F [Example 18] next?
Given back: < 100 nM
